B1: CPEB3 Ribozyme (parent)
chain: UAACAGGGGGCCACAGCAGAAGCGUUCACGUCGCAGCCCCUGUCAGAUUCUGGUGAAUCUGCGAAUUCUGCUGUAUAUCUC

Variants of: B1
Experiment: self-cleavage, relative activity (ratio to wild type); higher = more cleavage; in vitro, sequencing
Classify by self-cleavage. Ranges: b0 (below 0.3), b1 (0.3 to below 0.5), b2 (0.5 or more)

For orientation, consider the following solved cases.
| Variant label | Assigned class |
| --- | --- |
| A18G A64G | b1 |
| U80A C81U | b2 |
| U1A C12U | b2 |
| G7U A65G | b1 |

Lookup: Hi, small favor: classify U60G C71U by its self-cleavage when you get a moment.
Found: b0

Lookup: Hi, small favor: classify C38A A75U by its self-cleavage when you get a moment.
Found: b1

Lookup: Hi, small favor: classify A56G A75G by its self-cleavage when you get a moment.
Found: b2

Lookup: Hi, small favor: classify G63C U66C by its self-cleavage when you get a moment.
Found: b1

Lookup: Hi, small favor: classify G30C A45C by its self-cleavage when you get a moment.
Found: b1

Lookup: Hi, small favor: classify A45U A75G by its self-cleavage when you get a moment.
Found: b1

Lookup: Hi, small favor: classify C37G A45U by its self-cleavage when you get a moment.
Found: b0

Lookup: Hi, small favor: classify A35U C59U by its self-cleavage when you get a moment.
Found: b0

Lookup: Hi, small favor: classify A3U C79U by its self-cleavage when you get a moment.
Found: b2

Lookup: Hi, small favor: classify A13G U72C by its self-cleavage when you get a moment.
Found: b2

Lookup: Hi, small favor: classify A18C C29U by its self-cleavage when you get a moment.
Found: b1
